Source: the DeepSol protein solubility set

Assay: soluble on expression in E. coli; label from the status in PepcDB or PDB records
recorded endpoint: soluble on expression in E. coli

seq_string=MIDEYDDLAHDSSEGEFEPNTLTPEEKPPHNVDEDRIESTGVAAPMQGTEEPEKGDQKESDGASQVDQSVEITRPETSYYQTLESPSTKRQKLDQQGNGDQTRDFGTSMEL recorded_endpoint="soluble on expression in E. coli" result=soluble
seq_string=MSLDRKLKGSVEEKTLEYLRKRPEIYMALSTGIVNLNGLAALISKENDGMNQLSIRSVLQKMIRDGLVSDYRKSTDDLLKRSKVTLQDKVSVITSRRKIDIDFLSVTFLTDSVVYIVDETRAKNIPKDALIERNVSLIHIFSPPEIVTTPGFAMNVVQRIYAANVNILQLISCSNETMIVVNRDDAISAYSALTSYEGHHHHHH recorded_endpoint="soluble on expression in E. coli" result=soluble
seq_string=MPSIRVVNLKKYFGKVKAVDGVSFEVKDGEFVALLGPSGCGKTTTLLMLAGIYKPTSGEIYFDDVLVNDIPPKYREVGMVFQNYALYPHMTVFENIAFPLRARRISKDEVEKRVVEIARKLLIDNLLDRKPTQLSGGQQQRVALARALVKQPKVLLFDEPLSNLDANLRMIMRAEIKHLQQELGITSVYVTHDQAEAMTMASRIAVFNQGKLVQYGTPDEVYDSPKNMFVASFIGNPPTNFLRDFSVSVENKQTILKRDDVIIKLPEPVDVKLKEVVVGIRPEHCRISRERVENSIPGVVYVVEPLGRDIIVNVKTEKGEIIKVFGDTGKAPQPGENVFLVPDLRKIHLFNPETEETIL recorded_endpoint="soluble on expression in E. coli" result=soluble
